target or test system: human CB2R (Homo sapiens, UniProt P34972)
Sequence (P34972 whole entry): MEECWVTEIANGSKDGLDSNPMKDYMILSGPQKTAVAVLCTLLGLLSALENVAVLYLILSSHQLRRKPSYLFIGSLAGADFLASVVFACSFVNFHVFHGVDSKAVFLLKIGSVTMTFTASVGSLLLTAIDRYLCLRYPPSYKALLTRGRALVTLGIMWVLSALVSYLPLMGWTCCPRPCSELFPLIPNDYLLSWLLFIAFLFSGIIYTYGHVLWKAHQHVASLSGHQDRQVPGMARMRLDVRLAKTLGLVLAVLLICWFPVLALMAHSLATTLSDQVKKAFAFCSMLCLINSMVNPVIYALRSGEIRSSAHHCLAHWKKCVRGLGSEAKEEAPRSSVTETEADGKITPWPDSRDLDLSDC
protocol: Competition binding assay, displacement of [3H]-CP-55,940 from membranes of HEK-293 cells overexpressing CB2R
Design: purchased Perkin-Elmer, Italy; host or cells: HEK-293 cells (membranes)
run conditions: max conc. tested 10 µM; read-out: % Displacement/ Max Conc. Tested, hCB2R (converted)
experimental endpoint: inhibition at 10 µM (%)

INSERT INTO measurements (compound, unit_annotation, value_measured) VALUES
  ('Cc1cc(C)c(S(=O)(=O)N=C2CN(C34CC5CC(CC(C5)C3)C4)C(=O)N2CC2CC2)c(C)c1 [Compound 12f]', '%', 40.2),
  ('CC(C)(C)N1CC(=NS(C)(=O)=O)N(CC2CC2)C1=O [Compound 10a]', '%', 13.4),
  ('COCCN1C(=O)N(C(C)(C)C)CC1=NS(=O)(=O)c1ccc(C)cc1 [Compound 11c]', '%', 33.4),
  ('Cc1cc(C)c(S(=O)(=O)N=C2CN(C(C)(C)C)C(=O)N2CC2CC2)c(C)c1 [Compound 10f]', '%', 81.3),
  ('O=C1N(CC2CC2)/C(=N/S(=O)(=O)c2ccc3ccccc3c2)CN1C12CC3CC(CC(C3)C1)C2 [Compound 12h]', '%', 17.7),
  ('CC(C)(C)N1CC(=NS(=O)(=O)c2cccc3ccccc23)N(c2ccccc2)C1=O [Compound 9g]', '%', 11),
  ('Cc1ccc(S(=O)(=O)N=C2CN(C34CC5CC(CC(C5)C3)C4)C(=O)N2CC2CC2)cc1 [Compound 12c]', '%', 20.6),
  ('CCN1CC(=NS(=O)(=O)c2ccc(Cl)cc2)N(CC)C1=O [Compound 4f]', '%', 14.9);

---

target or test system: human CB2R (Homo sapiens, UniProt P34972)
protocol: cAMP Hunter assay, effect on NKH-477-induced cAMP levels (agonist mode)
Type: cell-based
pEC50: −log10 of the molar value.
experimental endpoint: pEC50

INSERT INTO measurements (compound, target_or_test_system, experimental_endpoint, value_measured) VALUES
  ('CC(C)(C)N1CC(=NS(=O)(=O)c2cccc3ccccc23)N(CC2CC2)C1=O [Compound 10g]', 'human CB2R (Homo sapiens, UniProt P34972)', 'pEC50', 7.14);

---

target or test system: human CB2R (Homo sapiens, UniProt P34972)
protocol: Competition binding assay, displacement of [3H]-CP-55,940 from membranes of HEK-293 cells overexpressing CB2R
Set-up: purchased Perkin-Elmer, Italy; host or cells: HEK-293 cells (membranes)
run conditions: [3H]-CP-55,940 displacement, HEK-293 membranes, 90 min at 30 °C, Cheng-Prusoff; read-out: Ki hCB2R (µM ± S.E.)
experimental endpoint: Ki

INSERT INTO results (compound, experimental_endpoint, value_measured) VALUES
  ('COCCN1C(=O)N(C(C)(C)C)CC1=NS(=O)(=O)c1ccc(C)cc1 [Compound 11c]', 'Ki', '> 10 µM'),
  ('CC(C)(C)N1CC(=NS(=O)(=O)c2ccccc2)N(c2ccccc2)C1=O [Compound 9b]', 'Ki', '> 10 µM'),
  ('Cc1ccc(S(=O)(=O)N=C2CN(C34CC5CC(CC(C5)C3)C4)C(=O)N2CC2CC2)cc1 [Compound 12c]', 'Ki', '> 10 µM'),
  ('Cc1ccc(S(=O)(=O)N=C2CN(C)C(=O)N2C)cc1 [Compound 4b]', 'Ki', '> 10 µM'),
  ('CCN1CC(=NS(=O)(=O)c2ccc(Br)cc2)N(CC)C1=O [Compound 4g]', 'Ki', '> 10 µM'),
  ('CC(C)(C)N1CC(=NS(=O)(=O)c2ccc3ccccc3c2)N(CC2CC2)C1=O [Compound 10h]', 'Ki', '0.78 µM'),
  ('CCN1CC(=NS(=O)(=O)c2ccccc2)N(CC)C1=O [Compound 4e]', 'Ki', '> 10 µM'),
  ('CC(C)(C)N1C(=O)N(CC2CC2)CC1=NS(=O)(=O)c1ccccc1 [Compound 15]', 'Ki', '1.61 µM');

---

target or test system: human recombinant CB1R (Homo sapiens, UniProt P21554)
Construct: purchased Perkin-Elmer, Italy; host or cells: HEK-293 cells (membranes)
Sequence (P21554 whole entry): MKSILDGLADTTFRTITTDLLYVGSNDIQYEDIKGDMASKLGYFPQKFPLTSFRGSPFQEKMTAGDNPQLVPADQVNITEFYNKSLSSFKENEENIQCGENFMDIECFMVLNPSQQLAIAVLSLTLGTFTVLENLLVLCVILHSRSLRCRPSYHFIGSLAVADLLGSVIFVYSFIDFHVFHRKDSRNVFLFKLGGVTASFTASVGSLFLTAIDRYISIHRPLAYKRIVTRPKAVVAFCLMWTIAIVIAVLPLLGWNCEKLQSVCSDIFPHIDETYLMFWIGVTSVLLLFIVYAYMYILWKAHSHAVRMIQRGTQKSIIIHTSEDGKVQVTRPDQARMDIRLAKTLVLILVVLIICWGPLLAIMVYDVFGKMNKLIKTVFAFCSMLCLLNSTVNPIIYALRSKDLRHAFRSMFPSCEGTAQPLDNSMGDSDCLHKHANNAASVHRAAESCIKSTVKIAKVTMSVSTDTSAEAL
protocol: Competition binding assay, displacement of [3H]-CP-55,940 from membranes of HEK-293 cells overexpressing CB1R
run conditions: read-out: % Displacement/ Max. Conc. Tested, hCB1R
Lab note: anything with inhibition at 10 µM at or over 10% counts as YES; the rest go in NO.

INSERT INTO measurements (molecule, group_label) VALUES
  ('Cc1ccc(S(=O)(=O)N=C2CN(C34CC5CC(CC(C5)C3)C4)C(=O)N2CC2CC2)cc1 [Compound 12c]', 'YES'),
  ('CC(C)(C)N1CC(=NS(=O)(=O)c2cccc(Br)c2)N(CC2CC2)C1=O [Compound 10e]', 'YES'),
  ('Cc1ccc(S(=O)(=O)N=C2CN(C(C)(C)C)C(=O)N2CC(C)C)cc1 [Compound 14]', 'NO'),
  ('CC(C)(C)N1CC(=NS(=O)(=O)c2ccc3ccccc3c2)N(c2ccccc2)C1=O [Compound 9h]', 'NO'),
  ('O=C1N(CC2CC2)/C(=N/S(=O)(=O)c2cccc3ccccc23)CN1C12CC3CC(CC(C3)C1)C2 [Compound 12g]', 'YES');

---

target or test system: human CB2R (Homo sapiens)
protocol: Competition binding assay, displacement of [3H]-CP-55,940 from membranes of HEK-293 cells overexpressing CB2R
Parameters: purchased Perkin-Elmer, Italy; host or cells: HEK-293 cells (membranes)
run conditions: max conc. tested 10 µM; read-out: % Displacement/ Max Conc. Tested, hCB2R (converted)
Entries are grouped by inhibition at 10 µM into these classes: range 1 = under 10%, range 2 = from 10% up to 70%, range 3 = 70% and over

INSERT INTO measurements (compound, target_or_test_system, group_label) VALUES
  ('Cc1ccc(S(=O)(=O)N=C2CN(C)C(=O)N2C)cc1', 'human CB2R (Homo sapiens)', 'range 1'),
  ('CC(C)(C)N1CC(=NS(=O)(=O)c2ccc3ccccc3c2)N(CC2CC2)C1=O [Compound 10h]', 'human CB2R (Homo sapiens)', 'range 3'),
  ('CN1CC(=NS(=O)(=O)c2ccccc2)N(C)C1=O', 'human CB2R (Homo sapiens)', 'range 1'),
  ('CC(C)(C)N1CC(=NS(=O)(=O)c2cccc(Br)c2)N(CC2CC2)C1=O [Compound 10e]', 'human CB2R (Homo sapiens)', 'range 3'),
  ('COCCN1C(=O)N(C(C)(C)C)CC1=NS(=O)(=O)c1ccccc1 [Compound 11b]', 'human CB2R (Homo sapiens)', 'range 2'),
  ('CC(C)(C)N1CC(=NS(=O)(=O)c2ccccc2)N(c2ccccc2)C1=O', 'human CB2R (Homo sapiens)', 'range 2'),
  ('CC(C)(C)N1C(=O)N(CC2CC2)CC1=NS(=O)(=O)c1ccccc1', 'human CB2R (Homo sapiens)', 'range 3'),
  ('CN1CC(=NS(=O)(=O)c2ccc(Br)cc2)N(C)C1=O', 'human CB2R (Homo sapiens)', 'range 2'),
  ('Cc1ccc(S(=O)(=O)N=C2CN(C(C)(C)C)C(=O)N2c2ccccc2)cc1', 'human CB2R (Homo sapiens)', 'range 1'),
  ('O=C1N(CC2CC2)/C(=N/S(=O)(=O)c2cccc3ccccc23)CN1C12CC3CC(CC(C3)C1)C2 [Compound 12g]', 'human CB2R (Homo sapiens)', 'range 2'),
  ('COCCN1C(=O)N(C(C)(C)C)CC1=NS(=O)(=O)c1cccc2ccccc12 [Compound 11g]', 'human CB2R (Homo sapiens)', 'range 3');

---

target or test system: human recombinant CB1R (Homo sapiens)
Construct: purchased Perkin-Elmer, Italy; host or cells: HEK-293 cells (membranes)
protocol: Competition binding assay, displacement of [3H]-CP-55,940 from membranes of HEK-293 cells overexpressing CB1R
run conditions: read-out: % Displacement/ Max. Conc. Tested, hCB1R
Reported inhibition at 10 µM values follow for various molecules
experimental endpoint: inhibition at 10 µM (%)

INSERT INTO measurements (molecule, value_measured) VALUES
  ('Cc1ccc(S(=O)(=O)N=C2CN(C(C)(C)C)C(=O)N2CC2CC2)cc1 [Compound 10c]', 0),
  ('COCCN1C(=O)N(C(C)(C)C)CC1=NS(=O)(=O)c1cccc(Br)c1 [Compound 11e]', 10),
  ('COCCN1C(=O)N(C(C)(C)C)CC1=NS(C)(=O)=O [Compound 11a]', 65.3),
  ('CC(C)(C)N1CC(=NS(C)(=O)=O)N(CC2CC2)C1=O [Compound 10a]', 16.3),
  ('O=C1N(CC2CC2)C(=NS(=O)(=O)c2ccc(Br)cc2)CN1C12CC3CC(CC(C3)C1)C2 [Compound 12d]', 47.9),
  ('CC(C)(C)N1CC(=NS(=O)(=O)c2ccc3ccccc3c2)N(CC2CC2)C1=O [Compound 10h]', 8.18),
  ('CC(C)(C)N1CC(=NS(=O)(=O)c2cccc3ccccc23)N(CC2CC2)C1=O [Compound 10g]', 24.9),
  ('CC(C)(C)N1CC(=NS(=O)(=O)c2cccc3ccccc23)N(c2ccccc2)C1=O [Compound 9g]', 14.8),
  ('COCCN1C(=O)N(C(C)(C)C)CC1=NS(=O)(=O)c1ccc(C)cc1 [Compound 11c]', 57),
  ('Cc1ccc(S(=O)(=O)N=C2CN(C(C)(C)C)C(=O)N2c2ccccc2)cc1 [Compound 9c]', 7.22),
  ('COCCN1C(=O)N(C(C)(C)C)CC1=NS(=O)(=O)c1ccc2ccccc2c1 [Compound 11h]', 45.3),
  ('CC(C)(C)N1CC(=NS(C)(=O)=O)N(c2ccccc2)C1=O [Compound 9a]', 9.48),
  ('COCCN1C(=O)N(C(C)(C)C)CC1=NS(=O)(=O)c1ccccc1 [Compound 11b]', 52.6),
  ('Cc1cc(C)c(S(=O)(=O)N=C2CN(C34CC5CC(CC(C5)C3)C4)C(=O)N2CC2CC2)c(C)c1 [Compound 12f]', 59.2),
  ('CC(C)N1CC(=NS(=O)(=O)c2cccc3ccccc23)N(CC2CC2)C1=O [Compound 13]', 4.63),
  ('COCCN1C(=O)N(C(C)(C)C)CC1=NS(=O)(=O)c1cccc2ccccc12 [Compound 11g]', 13.5),
  ('COCCN1C(=O)N(C(C)(C)C)CC1=NS(=O)(=O)c1c(C)cc(C)cc1C [Compound 11f]', 55.7);
